Cited source: ChEMBL document CHEMBL4402608

# target of assay: Sodium-dependent noradrenaline transporter (Homo sapiens)
# Sequence (P23975 whole entry): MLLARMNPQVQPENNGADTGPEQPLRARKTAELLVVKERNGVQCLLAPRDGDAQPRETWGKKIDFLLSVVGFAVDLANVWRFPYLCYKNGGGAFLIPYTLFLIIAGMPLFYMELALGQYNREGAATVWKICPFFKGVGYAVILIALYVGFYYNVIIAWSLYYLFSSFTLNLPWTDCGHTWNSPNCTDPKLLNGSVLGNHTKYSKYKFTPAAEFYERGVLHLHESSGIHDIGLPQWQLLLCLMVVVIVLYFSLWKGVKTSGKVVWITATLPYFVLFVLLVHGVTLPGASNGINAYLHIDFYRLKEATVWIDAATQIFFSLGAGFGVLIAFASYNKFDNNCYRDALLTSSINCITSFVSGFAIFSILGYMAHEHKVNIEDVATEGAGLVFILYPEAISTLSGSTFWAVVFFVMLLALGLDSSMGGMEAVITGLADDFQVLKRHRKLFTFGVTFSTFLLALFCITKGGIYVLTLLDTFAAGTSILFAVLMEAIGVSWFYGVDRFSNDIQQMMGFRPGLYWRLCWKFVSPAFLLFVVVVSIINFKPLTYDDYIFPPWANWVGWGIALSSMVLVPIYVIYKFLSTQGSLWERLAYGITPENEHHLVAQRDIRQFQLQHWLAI
# assay info: Displacement of [3H]-Nisoxetine from human NET receptor expressed in stable HEK cell membranes after 90 mins by microbeta scintillation counting method
# settings: read-out: Ki
readout name: pKi
Please keep in mind that pKi is minus log10 of the molar concentration; only the number is needed.

Could you share which pKi value was measured for `CCCN(CC[C@]1(O)C[C@H](NC(=O)c2ccc3ccccc3c2)C1)[C@H]1CCc2nc(N)sc2C1` ?
6.36

====

# target of assay: D(2) dopamine receptor (Homo sapiens, UniProt P14416)
# Sequence (P14416 whole entry): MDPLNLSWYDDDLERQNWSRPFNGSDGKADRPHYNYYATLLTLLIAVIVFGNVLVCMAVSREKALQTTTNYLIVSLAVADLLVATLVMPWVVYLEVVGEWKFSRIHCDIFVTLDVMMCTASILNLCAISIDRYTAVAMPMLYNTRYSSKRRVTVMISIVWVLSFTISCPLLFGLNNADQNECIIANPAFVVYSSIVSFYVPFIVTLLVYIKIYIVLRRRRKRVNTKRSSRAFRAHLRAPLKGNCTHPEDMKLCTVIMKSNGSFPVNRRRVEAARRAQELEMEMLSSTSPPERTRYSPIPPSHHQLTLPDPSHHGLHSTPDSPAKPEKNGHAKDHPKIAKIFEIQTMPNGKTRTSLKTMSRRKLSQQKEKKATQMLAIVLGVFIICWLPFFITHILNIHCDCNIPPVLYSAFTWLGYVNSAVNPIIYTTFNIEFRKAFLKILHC
readout name: IC50

Could you share which IC50 value was measured for `COc1ccc(OCCN2CCN(C(=O)c3ccc(OC)cc3)CC2)cc1` ?
> 100 µM
